These measurements were taken from ChEMBL document CHEMBL4725239.

Experiment: Clearance in cynomolgus monkey at 1 mg/kg, iv
Format: ADME, organism-based, Macaca fascicularis
Conditions: in vivo
measurement_type: clearance (mL/min/kg)
Form entry: value (mL/min/kg) — number only.

Supply recorded clearance for Cc1cc(CNC(=O)c2nc3n(c(=O)c2O)CC2CCC3(NC(=O)C(=O)N(C)C)CC2)ccc1F here.
13.5

====

Assay: Clearance in Sprague-Dawley rat at 1 mg/kg, iv measured up to 4 hrs
Type: ADME, organism-based
Details: in vivo
measurement_type: clearance (mL/min/kg)
Return type: number; implicit unit mL/min/kg.

Consider the molecule Cc1cc(CNC(=O)c2nc3n(c(=O)c2O)CC2CCC3(NC(=O)C(=O)N(C)C)CC2)ccc1F and give its recorded clearance.
12.6
